Test system: Plasmodium falciparum
Test: Confirmatory screen in NF54 pLDH assay, in single point, at 2uM, 72h
Type: functional, Erythrocyte
Details: timepoint 72 hour
Out of some 4,800 compounds screened, about 410 (8.5%) showed an effect of 50% or more. Only a selection was taken, and strong results are over-represented in it overall.
Test readout: % Inhibition

Consider the worked cases shown below.
CCOC(=O)Oc1c(OC)cc(C(=O)Nc2ccc3c(c2)sc(=O)n3C)cc1OC | 15%
COc1ccsc1S(=O)(=O)N(CCN(C)C)C1CCCC1 | -9%
CCn1cc(S(=O)(=O)N2CC(Oc3cccc(-c4nc(C)no4)c3)C2)cn1 | 7%
Cc1ccc(CS(=O)(=O)NC(=O)N2CCC(c3ccccc3)CC2)cc1 | 10%

// below: % Inhibition requested for another compound
Task: % Inhibition lookup needed for Cc1cccc(NC(=O)Cn2ccc(C(=O)Nc3cccc(C)c3C)n2)c1C , thanks.
Result: -11%

* * *

Catalogue of % Inhibition values
Tested on: Plasmodium falciparum
Experiment: Confirmatory screen in NF54 pLDH assay, in single point, at 2uM, 72h
Format: functional, Erythrocyte
Details: timepoint 72 hour
The campaign covered roughly 4,800 compounds. About 410 (8.5%) showed an effect of 50% or more. The sample as a whole holds a higher share of strong results than the screen did.
Use % as the unit, but write only the number.

Consider the worked cases shown below.
Cc1cc(-c2cncc(CN3CCCCC3)c2)ccc1F | 8
O=C(N[C@@H](Cn1nccn1)c1ccccc1)c1cc(Br)ccc1Cl | 75
O=C(Nc1ccc2c(c1)c1cc(Br)ccc1n2Cc1ccccc1)c1ccccc1 | 6
Cc1nn(-c2ncccn2)c2c1[C@@H](c1ccccc1)CC(=O)N2 | -15
C[C@@H](CNc1nc(-c2ccccc2)nc2nc(-c3ccc(Cl)cc3)oc12)N1CCCCC1 | 76

Task: % Inhibition lookup needed for COc1ccc(NC(=O)[C@@H](C)C2CCOCC2)cc1 , thanks.
Result: -5

Task: % Inhibition lookup needed for O=C1C[C@H](c2cccnc2)c2cnn(C3CCCC3)c2N1 , thanks.
Result: 16

* * *

Catalogue of % Inhibition values
Tested on: Plasmodium falciparum
Test: Confirmatory screen in NF54 pLDH assay, in single point, at 2uM, 72h
Assay type: functional, Erythrocyte
Conditions: timepoint 72 hour
Out of some 4,800 compounds screened, about 410 (8.5%) showed an effect of 50% or more. Only a selection was taken, and strong results are over-represented in it overall.
Use % as the unit, but write only the number.

Consider the worked cases shown below.
Cc1cccc(C(=O)Nc2nc3cc4sc(NC(=O)c5cccc(C)c5)nc4cc3s2)c1 | -8
Cc1cc(N2CCn3c(nc4ccccc43)C2)ccc1NC(=O)C1CCCCC1 | 14
CCOc1cc(Cl)ccc1C(=O)NC1CCN(C[C@H]2CCOC2)CC1 | 5
CC(CNc1ccccn1)N1CCOCC1C (stereo unspecified) | 0

Task: % Inhibition lookup needed for O=C(N[C@H](c1ccccc1)C1CC1)C(c1ccccc1)c1ccccc1 , thanks.
Result: 11

Task: % Inhibition lookup needed for O=C(CN1C(=O)N[C@H](c2ccc(F)cc2)C1=O)Nc1ccc2c(c1)OCCO2 , thanks.
Result: 5

Task: % Inhibition lookup needed for O=C(NCC1CCCCC1O)c1cnn2ccncc12 (stereo unspecified) , thanks.
Result: -5

Task: % Inhibition lookup needed for CN(Cc1ccn(C)n1)C(=O)c1cc(S(=O)(=O)N(C)C)c(Cl)cc1Cl , thanks.
Result: 8

Task: % Inhibition lookup needed for COc1cccc(C(=O)c2c[nH]c(C(=O)NCc3cccc(C(F)(F)F)c3)c2)c1 , thanks.
Result: 6

Task: % Inhibition lookup needed for O=C(NCC1CCCCC1)c1cn[nH]c1-c1ccccc1 , thanks.
Result: 6

Task: % Inhibition lookup needed for CC[C@@H](C(N)=O)N1CCN(Cc2nc(-c3cccs3)no2)CC1 , thanks.
Result: 7
